Values compiled from patent US9394282B2.

# Test System: JAK2 (Homo sapiens (Human), UniProt O60674)
# Sequence (O60674 849-1124): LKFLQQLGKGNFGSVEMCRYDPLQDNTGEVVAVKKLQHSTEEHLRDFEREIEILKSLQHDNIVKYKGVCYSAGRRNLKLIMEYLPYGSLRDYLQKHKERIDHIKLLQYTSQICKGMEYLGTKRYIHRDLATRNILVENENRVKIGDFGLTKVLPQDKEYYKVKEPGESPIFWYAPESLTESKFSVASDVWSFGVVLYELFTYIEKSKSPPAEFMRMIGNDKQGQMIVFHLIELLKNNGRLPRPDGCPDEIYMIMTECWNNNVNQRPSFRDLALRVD
# Assay Method Text: Jak biochemical HTRF assay, JAK2
# Particulars: recombinant purified GST-tagged catalytic domain; HTRF format; [ATP] 8.5 μM
Examples of compounds with documented pIC50 follow.
Scale note: pIC50 = -log10(concentration in M).

// worked examples, pIC50 included
Compound	Obs Value
C#CCCOC(=O)N1CC[C@H](n2cc(C(N)=O)c(Nc3ccc(F)cc3)n2)[C@H](C#N)C1 (racemic)	5.86
N#C[C@@H]1CS(=O)(=O)CC1n1cc(C(N)=O)c(Nc2ccc(F)cc2)n1 (mixture of isomers)	7.62
N#C[C@@H]1CN(C(=O)OCCF)CC[C@H]1n1cc(C(N)=O)c(Nc2ccc(F)cc2)n1 (racemic)	6.98
CCOC(=O)N1CC[C@@H](C#N)C(n2cc(C(N)=O)c(Nc3ccc(F)cc3)n2)C1 (mixture of isomers)	7.21

Which pIC50 value is on record for N#C[C@@H]1CCN(Cc2cccnn2)CC1n1cc(C(N)=O)c(Nc2ccc(F)cc2)n1 (mixture of isomers) ? 7.11

// pIC50 lookup, key: Cc1cc(CN2CC[C@@H](n3cc(C(N)=O)c(Nc4ccc(F)cc4)n3)[C@H](C#N)C2)no1 (racemic) 7.04

Endpoint output: pIC50 of N#C[C@@H]1CN(C(=O)OCC(F)(F)CO)CC[C@H]1n1cc(C(N)=O)c(Nc2ccc(F)cc2)n1 (racemic) . Value? 6.97

Please look up its pIC50: N#C[C@@H]1CCN(Cc2cscn2)C[C@H]1n1cc(C(N)=O)c(Nc2ccc(F)cc2)n1 (racemic) 7.72

Which pIC50 reading was recorded for the compound CC(C)(O)C1CC(CN2CC[C@@H](C#N)[C@H](n3cc(C(N)=O)c(Nc4ccc(F)cc4)n3)C2)C1 (mixture of isomers) ? 6.27

Fill in the blank: the reported pIC50 of Cn1nccc1CN1CC[C@@H](C#N)[C@H](n2cc(C(N)=O)c(Nc3ccc(F)cc3)n2)C1 (racemic) is ____. 7.70

State the recorded pIC50 for this entry: N#C[C@@H]1CN(Cc2cccnc2F)CC[C@H]1n1cc(C(N)=O)c(Nc2ccc(F)cc2)n1 (racemic) 7.10

----------
# Test System: JAK2 (Homo sapiens (Human))
# Assay Method Text: Jak biochemical HTRF assay, JAK2
# Particulars: recombinant purified GST-tagged catalytic domain; HTRF format; [ATP] 8.5 μM
// pIC50 lookup, one value per entry
By convention, pIC50 is the negative base-10 log of a molar concentration.

Compound	Test System	pIC50
CC1=NOC(CN2CC[C@@H](C#N)[C@H](n3cc(C(N)=O)c(Nc4ccc(F)cc4)n3)C2)C1 (mixture of isomers)	JAK2 (Homo sapiens (Human))	7.01
Cc1cc(CN2CC[C@@H](C#N)[C@H](n3cc(C(N)=O)c(Nc4ccc(F)cc4)n3)C2)no1 (racemic)	JAK2 (Homo sapiens (Human))	7.38
N#C[C@@H]1CNCCC1n1cc(C(N)=O)c(Nc2ccc(F)cc2)n1 (mixture of isomers)	JAK2 (Homo sapiens (Human))	6.20
N#C[C@@H]1CCN(C(=O)OCc2ccccc2)CC1n1cc(C(N)=O)c(Nc2ccc(F)cc2)n1 (mixture of isomers)	JAK2 (Homo sapiens (Human))	7.28
CN1CCN(CCOC(=O)N2CC[C@@H](n3cc(C(N)=O)c(Nc4ccc(F)cc4)n3)[C@H](C#N)C2)CC1 (racemic)	JAK2 (Homo sapiens (Human))	5.97
N#C[C@@H]1CN(Cc2cccnn2)CC[C@H]1n1cc(C(N)=O)c(Nc2ccc(F)cc2)n1 (racemic)	JAK2 (Homo sapiens (Human))	6.66

Now for a further compound.
# query: pIC50 | item CC(C)(C)OC(=O)N1CCC(n2cc(C(N)=O)c(Nc3ccc(F)cc3)n2)[C@H](C#N)C1 (mixture of isomers) | system: JAK2 (Homo sapiens (Human)) 6.08

----------
IC50 values for the compounds below.
# Test System: JAK2 (Homo sapiens (Human), UniProt O60674)
# Assay Method Text: Jak biochemical HTRF assay, JAK2
# Particulars: recombinant purified GST-tagged catalytic domain; HTRF format; [ATP] 8.5 μM
Unit nM implied. Number only.

A selection of reference data follows.
Compound	Test System	Unit Abbreviation	IC50
N#C[C@@H]1CN(C(=O)OC2COC2)CC[C@@H]1n1cc(C(N)=O)c(Nc2ccc(F)cc2)n1 (racemic)	JAK2 (Homo sapiens (Human), UniProt O60674)	nM	1110
N#C[C@@H]1CCN(Cc2cnccn2)C[C@H]1n1cc(C(N)=O)c(Nc2ccc(F)cc2)n1 (racemic)	JAK2 (Homo sapiens (Human), UniProt O60674)	nM	26
N#C[C@@H]1CS(=O)(=O)CC1n1cc(C(N)=O)c(Nc2ccc(S(=O)(=O)C(F)(F)F)cc2)n1 (mixture of isomers)	JAK2 (Homo sapiens (Human), UniProt O60674)	nM	15
CC1(COC(=O)N2CC[C@@H](C#N)C(n3cc(C(N)=O)c(Nc4ccc(F)cc4)n3)C2)COC1 (mixture of isomers)	JAK2 (Homo sapiens (Human), UniProt O60674)	nM	96
N#C[C@@H]1CCN(C(=O)OC2COC2)CC1n1cc(C(N)=O)c(Nc2ccc(F)cc2)n1 (mixture of isomers)	JAK2 (Homo sapiens (Human), UniProt O60674)	nM	43
CCn1ccnc1CN1CC[C@@H](n2cc(C(N)=O)c(Nc3ccc(F)cc3)n2)[C@H](C#N)C1 (racemic)	JAK2 (Homo sapiens (Human), UniProt O60674)	nM	82
CC(C)(C)OC(=O)N1CCC(n2cc(C(N)=O)c(Nc3ccc(F)cc3)n2)[C@@H](C#N)C1 (mixture of isomers)	JAK2 (Homo sapiens (Human), UniProt O60674)	nM	367
N#CCC1(COC(=O)N2CC[C@@H](C#N)C(n3cc(C(N)=O)c(Nc4ccc(F)cc4)n3)C2)CC1 (mixture of isomers)	JAK2 (Homo sapiens (Human), UniProt O60674)	nM	15

Query the reported IC50 for JAK2 (Homo sapiens (Human), UniProt O60674); item: CC(C)COC(=O)N1CC[C@@H](C#N)C(n2cc(C(N)=O)c(Nc3ccc(F)cc3)n2)C1 (mixture of isomers) 76

Hello, I am looking for reported IC50 with JAK2 (Homo sapiens (Human), UniProt O60674) for N#C[C@@H]1CCN(Cc2ccc(F)cn2)C[C@H]1n1cc(C(N)=O)c(Nc2ccc(F)cc2)n1 (racemic) . Could you help? 14

State its IC50 on JAK2 (Homo sapiens (Human), UniProt O60674): Cc1ncc(CN2CC[C@@H](n3cc(C(N)=O)c(Nc4ccc(F)cc4)n3)[C@H](C#N)C2)s1 (racemic) 104

What reported IC50 corresponds to N#C[C@@H]1CN(Cc2ncco2)CC[C@H]1n1cc(C(N)=O)c(Nc2ccc(F)cc2)n1 (racemic) on JAK2 (Homo sapiens (Human), UniProt O60674)? 47

Value wanted: IC50 (JAK2 (Homo sapiens (Human), UniProt O60674)) of entry CC(C)(C)OC(=O)N1CC[C@H](C#N)C(n2cc(C(N)=O)c(Nc3ccccc3)n2)C1 (mixture of isomers) 41

Report IC50 for N#C[C@H]1CCOC[C@@H]1n1cc(C(N)=O)c(Nc2ccc(OC(F)(F)F)cc2)n1 (single isomer, unassigned) tested on JAK2 (Homo sapiens (Human), UniProt O60674). 52

Param readout= IC50; system= JAK2 (Homo sapiens (Human), UniProt O60674); entry= N#C[C@@H]1CN(C(=O)OCCN2CCCC2)CC[C@H]1n1cc(C(N)=O)c(Nc2ccc(F)cc2)n1 (racemic) ; returns value. 1100

Tell me reported IC50 for N#C[C@@H]1CN(C(=O)OCC2(N)CC2)CC[C@H]1n1cc(C(N)=O)c(Nc2ccc(F)cc2)n1 (racemic) , tested with JAK2 (Homo sapiens (Human), UniProt O60674). 703

Any idea what IC50 came out for N#C[C@@H]1CN(C(=O)OC(CF)CF)CC[C@@H]1n1cc(C(N)=O)c(Nc2ccc(F)cc2)n1 (racemic) on JAK2 (Homo sapiens (Human), UniProt O60674)? 1340

Return IC50 measured with JAK2 (Homo sapiens (Human), UniProt O60674) given this compound: N#C[C@@H]1CCN(Cc2ncco2)C[C@H]1n1cc(C(N)=O)c(Nc2ccc(F)cc2)n1 (racemic) 22

----------
# Test System: UniProt P23458
# Sequence (P23458 875-1153): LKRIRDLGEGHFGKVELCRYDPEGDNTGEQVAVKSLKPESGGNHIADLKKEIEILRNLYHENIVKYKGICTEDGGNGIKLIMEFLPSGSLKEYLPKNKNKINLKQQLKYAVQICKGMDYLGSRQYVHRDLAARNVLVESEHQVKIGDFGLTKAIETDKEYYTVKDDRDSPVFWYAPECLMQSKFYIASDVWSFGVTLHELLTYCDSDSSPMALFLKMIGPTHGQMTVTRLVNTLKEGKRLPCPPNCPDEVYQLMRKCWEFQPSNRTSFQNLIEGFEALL
# Assay Method Text: Jak biochemical HTRF assay, JAK1
# Particulars: recombinant purified GST-tagged catalytic domain; HTRF format; [ATP] 31.8 μM
Assay Endpoint: IC50
Please make sure the unit comes right after the number.

Illustrative cases are given below, each with its answer.
Molecule	IC50
N#C[C@@H]1CN(Cc2cccnc2F)CC[C@H]1n1cc(C(N)=O)c(Nc2ccc(F)cc2)n1 (racemic)	5 nM
N#C[C@@H]1CN(C(=O)OC2CCCC2)CC[C@H]1n1cc(C(N)=O)c(Nc2ccc(F)cc2)n1 (racemic)	29 nM
COC(C)(C)c1ccc(Nc2nn([C@@H]3COCC[C@H]3C#N)cc2C(N)=O)cc1 (single isomer, unassigned)	0.1 nM
N#C[C@@H]1CN(C(=O)OCCN2CCCC2=O)CC[C@H]1n1cc(C(N)=O)c(Nc2ccc(F)cc2)n1 (racemic)	19 nM
N#C[C@@H]1CCN(Cc2ncco2)C[C@H]1n1cc(C(N)=O)c(Nc2ccc(F)cc2)n1 (racemic)	2 nM

Using the record for C[C@@]1(C#N)CS(=O)(=O)C[C@@H]1n1cc(C(N)=O)c(Nc2ccc(F)cc2)n1 (single isomer, unassigned) [Example 14-1] , report its IC50. 2 nM

Could you tell me which IC50 is on file for N#Cc1ccc(Nc2nn([C@H]3COCC[C@@H]3C#N)cc2C(N)=O)cc1 (single isomer, unassigned) ? 0.07 nM

Data request, read-out IC50, for N#C[C@@H]1CN(C(=O)OCCF)CC[C@H]1n1cc(C(N)=O)c(Nc2ccc(F)cc2)n1 (racemic) 4 nM

Query (molecule): N#C[C@H]1CCOC[C@@H]1n1cc(C(N)=O)c(Nc2ccccc2)n1 (single isomer, unassigned) ; field requested: IC50 10 nM

Give its IC50 value. Item: Cc1ncc(CN2CC[C@@H](n3cc(C(N)=O)c(Nc4ccc(F)cc4)n3)[C@H](C#N)C2)s1 (racemic) 5 nM

Fill blank: measured IC50 of the molecule N#C[C@@H]1CN(C(=O)OC2CCCC2)CC[C@@H]1n1cc(C(N)=O)c(Nc2ccc(F)cc2)n1 (racemic) is ____. 257 nM

Quick one: IC50 of CCOC(=O)COC(=O)N1CC[C@H](n2cc(C(N)=O)c(Nc3ccc(F)cc3)n2)[C@H](C#N)C1 (racemic) ? 323 nM

What IC50 value was documented for this molecule, CN(C)CC(C)(C)COC(=O)N1CC[C@@H](C#N)C(n2cc(C(N)=O)c(Nc3ccc(F)cc3)n2)C1 (mixture of isomers) ? 16 nM
